Values compiled from ChEMBL document CHEMBL4152222.

species: Homo sapiens; experiment: Selectivity index, ratio of Ki for human 5-HT1A receptor to Ki for human 5-HT6 receptor
Quick reference for Ratio Ki among some compounds
The reply should be a number, written without any unit.

Reference set (5 entries):
compound	Ratio Ki
Cc1ccc(C(C)(C)CC(C)NCc2ccc(C(F)(F)F)cc2)o1 (stereo unspecified)	5
Cc1ccc(C(C)NCCC(c2ccc(F)cc2)c2ccco2)cc1 (stereo unspecified)	3
O[C@H](CCN1CCc2onc(-c3ccc(F)c(F)c3)c2C1)c1ccccc1	37
Cc1ccc(COc2ccc(Br)cc2CNC(C)c2ccccc2)cc1 (stereo unspecified)	38
CC(NCCC(Cc1ccccc1)c1ccco1)c1ccc(Cl)cc1 (stereo unspecified)	5

Value lookup for Ratio Ki; key = "COc1cc(CNCCC2=CCCCC2)ccc1OCc1ccccc1"
2

* * *

Quick reference for log10 of Ki among some molecules
target: 5-hydroxytryptamine receptor 7 (Homo sapiens)
Sequence (P34969 whole entry): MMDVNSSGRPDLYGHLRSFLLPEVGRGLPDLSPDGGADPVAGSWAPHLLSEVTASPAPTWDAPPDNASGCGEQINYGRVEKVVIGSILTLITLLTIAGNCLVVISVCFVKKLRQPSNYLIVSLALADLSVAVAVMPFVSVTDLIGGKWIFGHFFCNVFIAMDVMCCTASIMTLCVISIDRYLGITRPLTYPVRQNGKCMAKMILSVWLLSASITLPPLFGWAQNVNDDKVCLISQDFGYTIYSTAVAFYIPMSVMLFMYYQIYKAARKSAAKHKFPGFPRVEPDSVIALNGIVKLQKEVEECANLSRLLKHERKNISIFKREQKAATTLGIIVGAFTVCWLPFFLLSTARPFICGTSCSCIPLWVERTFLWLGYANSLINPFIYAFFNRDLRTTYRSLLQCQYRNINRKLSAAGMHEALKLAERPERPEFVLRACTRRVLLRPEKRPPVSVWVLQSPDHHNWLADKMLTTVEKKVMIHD
Answers are given as log10 of Ki in µM.

Reference set (2 entries):
molecule	log10 of Ki
COc1ccc(CNCCC(c2ccco2)c2ccccc2OC)cc1 (configuration not stated)	1.02
Cc1ccc(C(C)NCCC(c2ccc(F)cc2)c2ccco2)cc1 (configuration not stated)	1.10

Checklist item: log10 of Ki tested on 5-hydroxytryptamine receptor 7 (Homo sapiens), entry CCC1(C)CC(CCNCc2ccc(OC)c(OC)c2)(c2ccc(C)cc2)CCO1 (configuration not stated) , value?
1.57

Checklist item: log10 of Ki tested on 5-hydroxytryptamine receptor 7 (Homo sapiens), entry Cc1ccc(C(C)(C)CC(C)NCc2ccc(C(F)(F)F)cc2)o1 (configuration not stated) , value?
0.79

Checklist item: log10 of Ki tested on 5-hydroxytryptamine receptor 7 (Homo sapiens), entry "COc1cc(CNCCC2=CCCCC2)ccc1OCc1ccccc1" , value?
0.90

Checklist item: log10 of Ki tested on 5-hydroxytryptamine receptor 7 (Homo sapiens), entry O=C1N(Cc2ccccc2)C(c2ccccc2)=NC1(Nc1ccccn1)C(F)(F)F (configuration not stated) , value?
1.93

Checklist item: log10 of Ki tested on 5-hydroxytryptamine receptor 7 (Homo sapiens), entry CCC1(C)CC(CCNCc2ccccc2)(c2ccc(C)cc2)CCO1 (configuration not stated) , value?
1.00

* * *

Below are molecules with their Ki as measured on 5-hydroxytryptamine receptor 6 (Homo sapiens, UniProt P50406).
Sequence (P50406 whole entry): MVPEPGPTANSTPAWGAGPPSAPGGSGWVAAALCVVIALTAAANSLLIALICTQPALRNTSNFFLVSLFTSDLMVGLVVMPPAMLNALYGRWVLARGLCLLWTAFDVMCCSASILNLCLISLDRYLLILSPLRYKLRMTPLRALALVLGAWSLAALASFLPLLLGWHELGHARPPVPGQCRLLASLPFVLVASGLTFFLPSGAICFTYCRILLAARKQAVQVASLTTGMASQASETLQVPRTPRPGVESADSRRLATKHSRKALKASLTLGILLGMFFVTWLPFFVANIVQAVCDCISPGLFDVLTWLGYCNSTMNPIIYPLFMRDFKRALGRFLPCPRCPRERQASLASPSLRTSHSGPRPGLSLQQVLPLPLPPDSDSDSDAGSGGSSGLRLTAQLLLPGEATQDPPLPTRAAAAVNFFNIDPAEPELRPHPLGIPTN
Numeric answer only, unit µM assumed.

molecule	unit_text	Ki
COc1cc(CNCCC2=CCCCC2)ccc1OCc1ccccc1	µM	2.7
CCC1(C)CC(CCNCc2ccc(OC)c(OC)c2)(c2ccc(C)cc2)CCO1 (stereo not drawn)	µM	3.4
Cc1ccc(C(C)NCCC(c2ccc(F)cc2)c2ccco2)cc1 (stereo not drawn)	µM	1.8
O[C@H](CCN1CCc2onc(-c3ccc(F)c(F)c3)c2C1)c1ccccc1	µM	9

Checklist item: Ki tested on 5-hydroxytryptamine receptor 6 (Homo sapiens, UniProt P50406), entry COc1ccc(CNCCC(c2ccccc2)c2ccc3c(c2)OCO3)cc1 (stereo not drawn) , value?
3.7

Checklist item: Ki tested on 5-hydroxytryptamine receptor 6 (Homo sapiens, UniProt P50406), entry Cc1ccc(C(C)(C)CC(C)NCc2ccc(C(F)(F)F)cc2)o1 (stereo not drawn) , value?
5.8

Checklist item: Ki tested on 5-hydroxytryptamine receptor 6 (Homo sapiens, UniProt P50406), entry CCC1(C)CC(CCNCc2ccccc2)(c2ccc(C)cc2)CCO1 (stereo not drawn) , value?
5.6

Checklist item: Ki tested on 5-hydroxytryptamine receptor 6 (Homo sapiens, UniProt P50406), entry CC(NCCC(Cc1ccccc1)c1ccco1)c1ccc(Cl)cc1 (stereo not drawn) , value?
1.4

* * *

organism: Homo sapiens; experiment: Selectivity index, ratio of Ki for human 5-HT1A receptor to Ki for human 5-HT6 receptor
Lab note - cut at 10 for Ratio Ki: YES if strictly below, NO if not.

compound	discrete_label
CCC1(C)CC(CCNCc2ccccc2)(c2ccc(C)cc2)CCO1 (stereo unspecified)	YES

A record lists COc1ccc(CNCCC(c2ccco2)c2ccccc2OC)cc1 (stereo unspecified) . Is its Ratio Ki below 10?
YES

* * *

Quick reference for Ratio Ki among some compounds
species on record: Homo sapiens; assay: Selectivity index, ratio of Ki for human 5-HT1A receptor to Ki for human 5-HT7B receptor
The reply should be a number, written without any unit.

Reference set (2 entries):
compound	Ratio Ki
CCC1(C)CC(CCNCc2ccc(OC)c(OC)c2)(c2ccc(C)cc2)CCO1 (stereo not drawn)	1
COc1ccc(CNCCC(c2ccccc2)c2ccc3c(c2)OCO3)cc1 (stereo not drawn)	1

Value lookup for Ratio Ki; key = Cc1ccc(C(CCNC(C)c2ccc(Cl)cc2)c2ccco2)cc1 (stereo not drawn)
1

* * *

organism: Homo sapiens; test: Selectivity index, ratio of Ki for human 5-HT1A receptor to Ki for human 5-HT6 receptor
quantity_name: Ratio Ki
The reply should be a number, written without any unit.

Reference set (3 entries):
molecule	Ratio Ki
COc1ccc(CNCCC(c2ccccc2)c2ccc3c(c2)OCO3)cc1 (centres undefined)	4
CCC1(C)CC(CCNCc2ccc(OC)c(OC)c2)(c2ccc(C)cc2)CCO1 (centres undefined)	11
O=C1N(Cc2ccccc2)C(c2ccccc2)=NC1(Nc1ccccn1)C(F)(F)F (centres undefined)	149

Value lookup for Ratio Ki; key = Cc1ccc(C(CCNC(C)c2ccc(Cl)cc2)c2ccco2)cc1 (centres undefined)
4
